assay.text: yeast display, Sf9 membrane polyspecificity reagent, FACS + sequencing; frameworks hold sequencing errors
measured.attribute: polyreactivity (PSR sort gate)

QVQLVESGVGLVQAGGSLRLSCAASGSIFYRNAMVWYRQAHGKERELVAAISGTGGSTYYADSLKGRFTISRDNAKNTVYLQMNSLKPEDTAVYYCASGVTYRHDYWGQGTQVTVSS | high polyreactivity
QVQLVESGGGLVQAGGSLRLSCAASGSTFSRYAMGWYRQAPGKERELVAAISWGGNTYYADSVKGRFTISRDNAKNTVYLQMNSLKPEDTAVYYCNRYSKLYNTMDYWGQGPQVTVSS | high polyreactivity

====

assay.text: yeast display, Sf9 membrane polyspecificity reagent, FACS + sequencing; frameworks hold sequencing errors
measured.attribute: polyreactivity (PSR sort gate)

QVQLVESVGGLVQAGGSLSLSCAASGSTFKQYAMGWYRQAPGKERELVAAISSRGGSTHYADSVKGRFTISRDNAKYTVYLQMNSLKPEDTAVYYCARDTDPQYSRSSDYDYWGQGTQVTVSS | low polyreactivity
QVQLVESGGGLVQAGGSLRLICAASGSIFDKYARGWYRQEPGKERELVAAIDSGDTYYADSVKGRFTISRDNAKNTVYLQMNSLKPEDTAVYYCAADDVQYEYDYWGQGTQVTVSS | low polyreactivity
QVQLVESGGGLVHAGGSLRLSCASSGFTYSQYVMGWYRQAPGKERELVASITGNGGSTRYADSVKGRFTISRDNANKTVYLQMNCLKPEDTAVYYCDTRVKFSTSYWLYYWGQGTQVTVSS | high polyreactivity
QVQLVESGGGLVQAGGSLRLSCAASGRTLGYYAMGWYRQAPGTERELVAAISGSGGITYYADSVKGRFTISRDNAKNTVYLQMNSLKPEDTAVYFCNVDPTAKWFNYDSWGQGTQVTVSS | low polyreactivity

Continue with the next sequence.
Q) Which polyreactivity (PSR sort gate) reading was recorded for the sequence QVQHVESGGGLVQAGGSLRLSCAASVSIFYDYAMGWYRQAPGKERELVAAINKSGGSTYYADSVKGRFTISRDNAKNTVYLQMNSLKPEDTAVYYCIARKRLGPVRYGYWGQGTQVTVST ?
A) high polyreactivity
